Can you tell me activation for the items I'm about to list?
targetOrTestSystem: Glucocorticoid receptor (Homo sapiens) (UniProt P04150)
Sequence (P04150 whole entry, looked up): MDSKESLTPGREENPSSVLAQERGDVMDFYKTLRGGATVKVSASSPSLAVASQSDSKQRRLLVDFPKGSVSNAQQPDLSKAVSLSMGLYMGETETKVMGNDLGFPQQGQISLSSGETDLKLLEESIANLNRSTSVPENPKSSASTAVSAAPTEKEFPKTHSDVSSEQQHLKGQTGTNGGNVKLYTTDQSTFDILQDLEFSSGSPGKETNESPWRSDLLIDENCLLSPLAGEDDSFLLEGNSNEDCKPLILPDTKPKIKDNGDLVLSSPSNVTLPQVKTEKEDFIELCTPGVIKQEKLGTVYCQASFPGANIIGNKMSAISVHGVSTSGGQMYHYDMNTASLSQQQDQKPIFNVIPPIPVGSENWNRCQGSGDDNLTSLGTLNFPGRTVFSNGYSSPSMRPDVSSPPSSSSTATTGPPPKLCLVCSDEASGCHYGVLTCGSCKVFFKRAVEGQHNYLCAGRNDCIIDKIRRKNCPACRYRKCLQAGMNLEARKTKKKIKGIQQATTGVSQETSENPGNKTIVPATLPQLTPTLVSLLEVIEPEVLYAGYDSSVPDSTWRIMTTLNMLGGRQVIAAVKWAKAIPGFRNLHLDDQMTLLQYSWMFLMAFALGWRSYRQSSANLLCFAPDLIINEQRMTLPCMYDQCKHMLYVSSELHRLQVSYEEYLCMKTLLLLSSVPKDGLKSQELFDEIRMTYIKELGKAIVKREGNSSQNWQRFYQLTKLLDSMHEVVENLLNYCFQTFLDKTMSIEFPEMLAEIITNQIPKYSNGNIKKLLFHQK
testProtocol: qHTS assay for small molecule agonists of glucocorticoid receptor signaling (AID 588532);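 further: 100% = dexamethasone at 0.1 µM and 0% = DMSO only wells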
settings: HeLa MMTV-bla, beta-lactamase ratio, agonist, 18 h; active compounds read high; percent of dexamethasone control, DMSO zero
Inconclusive results are not listed.
Respond with the bare value in %.

stdin: Find activation (Glucocorticoid receptor (Homo sapiens) (UniProt P04150)) for the entry `CC1(C)CCC(C)(C)c2cc(C(=O)Nc3ccc(C(=O)O)cc3)ccc21`
stdout: -10.3

stdin: Notebook: pull reported activation for Glucocorticoid receptor (Homo sapiens) (UniProt P04150), entry `Cc1cc(O)c(C(C)(C)C)cc1Sc1cc(C(C)(C)C)c(O)cc1C`
stdout: 26

stdin: // fetch Glucocorticoid receptor (Homo sapiens) (UniProt P04150) activation for O=C1OC(O)C(C(Cl)Cl)=C1Cl (stereo not given)
stdout: -17.9

stdin: Please provide the recorded activation for `O=C1OC2(c3cc(Br)c(O)c(Br)c3Oc3c2cc(Br)c(O)c3Br)c2c(Cl)c(Cl)c(Cl)c(Cl)c21` , tested on Glucocorticoid receptor (Homo sapiens) (UniProt P04150).
stdout: 0.908

stdin: Request: activation, test system Glucocorticoid receptor (Homo sapiens) (UniProt P04150), entry `Cc1cc(C(C)(C)CC(C)(C)C)ccc1OCCOCC[N+](C)(C)Cc1ccccc1`
stdout: -7.21

====

System: AA1029
testProtocol: qHTS profiling for inhibitors of Plasmodium falciparum proliferation (AID 504749); further: nearly all actives have a fitted effect of over 60% in size
settings: P. falciparum in erythrocytes, SYBR Green DNA, 72 h; series mostly up to 28.7 µM
Results filed as inconclusive are left out. The source made the active and inactive calls. Calls come from the whole dose curve; as a rule, active = well fitted inhibition curve with a large enough effect; inconclusive = small, poorly fitted or top-dose-only effect; inactive = flat fitted curve, though single readings scatter.
// classify into YES for active, NO for inactive

stdin: Recorded call for `CCN(CC)C(=O)[C@@]1(c2ccccc2)C[C@@H]1CN` ?
stdout: NO

stdin: Given `C[S+](C)CC[C@H](N)C(=O)O` , state the outcome it received in this test.
stdout: NO

stdin: Please share the test call associated with `CC[C@H](C)[C@H]1O[C@]2(CC[C@@H]1C)C[C@@H]1C[C@@H](C/C=C(\C)[C@H](O[C@@H]3C[C@H](OC)[C@H](O[C@@H]4C[C@H](OC)[C@@H](O)[C@H](C)O4)[C@H](C)O3)[C@@H](C)/C=C/C=C3\CO[C@@H]4[C@H](O)C(C)=C[C@@H](C(=O)O1)[C@]34O)O2` .
stdout: YES

stdin: So what was the verdict on CCCCCCCCCCCC(=O)OCC(O)C1OCC(O)C1O (stereo not given) in this test?
stdout: NO

stdin: Could you check what this test reported for `O=C(O)C[CH2][Ge](=[O])[O][Ge](=[O])[CH2]CC(=O)O` ?
stdout: NO

stdin: How did this test come out for CNC1C(O)C(OC2C(N)CC(N)C(OC3OC(CN)=CCC3N)C2O)OCC1(C)O (stereo not given) ?
stdout: NO

stdin: Can you look up the reported call for O=C1NC(=O)C2C3C=CC(C3)C12 (stereo not given) for me?
stdout: NO

stdin: For C[C@]12CC[C@@H]3c4ccc(O)cc4CC[C@H]3[C@@H]1C[C@H](O)C2O (stereo not given in full) , what call appears in the results of this test?
stdout: NO

stdin: Write down the call the test reported for this compound. Item: `CC(C)C[C@@H](NC(=O)[C@@H](Cc1ccccc1)NC(=O)c1cnccn1)B(O)O`
stdout: YES

stdin: Give the logged outcome of this assay for the following compound: O=c1ccn(C2OC(COP(=O)(O)OC3C(CO)OC(n4ccc(=O)[nH]c4=O)C3O)C(O)C2O)c(=O)[nH]1 (stereo not given)
stdout: NO

stdin: Any idea what this test logged for CNC1C(O)C(OC2C(NC(=O)C(O)CN)CC(N)C(OC3OC(CN)C(O)C(O)C3O)C2O)OCC1(C)O (stereo not given) ?
stdout: NO

stdin: Outcome logged for `O=C(O)c1ccc(N[C@@H]2OC[C@@H](O)[C@@H](O)[C@@H]2O)cc1` in this assay:
stdout: NO

stdin: For this compound, state the assay outcome: CC(c1ncncc1F)[C@](O)(Cn1cncn1)c1ccc(F)cc1F (stereo not given in full)
stdout: NO

stdin: GET /call?item= `C#C[C@]1(O)CC[C@H]2[C@H]3[C@H](CC[C@@]21C)C1=C(CC(=O)CC1)C[C@@H]3C` returns the recorded outcome of this test.
stdout: NO

stdin: Could you check what this test reported for `CC[C@]1([C@H]2O[C@@H]([C@@H]3O[C@](O)(CO)[C@@H](C)C[C@H]3C)C[C@H]2C)CC[C@@H]([C@]2(C)CC[C@@]3(C[C@@H](O)[C@@H](C)[C@@H]([C@H](C)[C@H](OC)[C@H](C)C(=O)O)O3)O2)O1` ?
stdout: YES

stdin: How did this test come out for COc1cccc2c1C(=O)c1c(O)c3c(c(O)c1C2=O)C[C@@](O)(C(=O)CO)C[C@@H]3OC1CC(N)C(O)C(C)O1 (stereo not given in full) ?
stdout: YES

stdin: What is the recorded call for this compound in the test? C[C@]12C=CC(=O)N[C@@H]1CC[C@@H]1C2CC[C@]2(C)C(C(=O)Nc3cc(C(F)(F)F)ccc3C(F)(F)F)CC[C@@H]12 (stereo not given in full)
stdout: NO

stdin: Outcome logged for CC1CCC(O)C/C1=C\C=C1/CCCC2(C)C1CCC2C(C)/C=C/C(C)C(C)C (stereo not given) in this assay:
stdout: NO

stdin: Which outcome was entered for the compound Cc1cc(O)c2c(c1)OC1(C)CCC3C(C)(C)CCCC34COC2C14 (stereo not given) in this test?
stdout: YES

stdin: Lab log entry: CCCCCOC(=O)Nc1nc(=O)n(C2O[C@H](C)[C@@H](O)[C@@H]2O)cc1F (stereo not given in full) — outcome as called in the assay?
stdout: NO

stdin: Per the records of this test, what outcome belongs to `C[C@H](O)[C@@H]1C(=O)N2C(C(=O)O)=C(SCCN=CN)C[C@@H]12` ?
stdout: NO

stdin: Name the outcome recorded for `CCN(CC)C(=O)Nc1ccc(OC[C@H](O)CNC(C)(C)C)c(C(C)=O)c1` in the assay.
stdout: NO

stdin: Any idea what this test logged for `Cn1cc(C(=O)[C@@H]2CCc3[nH]cnc3C2)c2ccccc21` ?
stdout: NO

stdin: Dear colleague, could you share the recorded outcome for `C[n+]1c2cc(N)ccc2cc2ccc(N)cc21` when you have a moment?
stdout: YES

stdin: Which outcome was entered for the compound `CC1(C)C2CC[C@]1(C)[C@@H](O)C2` in this test?
stdout: NO

stdin: Field: outcome | Entry: CCC(C)C(N)C(=O)O (stereo not given)
stdout: NO

stdin: Just curious, what result did CC1(C(=O)O)CCC2(C)CCC3(C)C(=CC(=O)C4C5(C)CCC(O)C(C)(C)C5CCC43C)C2C1 (stereo not given) get here?
stdout: NO

stdin: Lab log entry: `CCN(CC)CC(=O)Nc1c(C)cc(C)cc1C` — outcome as called in the assay?
stdout: NO

stdin: Returns: the outcome recorded for C=C1CCC(O)C/C1=C/C=C1\CCC[C@]2(C)[C@@H]([C@H](C)/C=C/[C@H](C)C(C)C)CC[C@@H]12 (stereo not given in full) in this assay.
stdout: NO

stdin: Per the assay record, what outcome was assigned to CC(C)CCCC(C)C1CC(=O)C2=C3CCC4CC(O)CCC4(C)C3CCC21C (stereo not given) ?
stdout: NO

stdin: // return assay outcome for `CN[C@H](C)CCC=C(C)C`
stdout: YES

stdin: How was COC(=O)C1[C@@H](OC)C(OC(=O)COc2ccc(OC)cc2)C[C@@H]2CN3CCc4c([nH]c5cc(OC)ccc45)[C@H]3C[C@H]12 (stereo not given in full) classified in this test?
stdout: YES

stdin: // outcome(item) with item = C=C[C@@]1(C)C[C@H](OC(=O)CSC(C)(C)CNC(=O)[C@@H](N)C(C)C)[C@@]2(C)C(C)CC[C@@]3(CCC(=O)[C@@H]32)[C@H](C)[C@H]1O (stereo not given in full)
stdout: YES

stdin: Write down the call the test reported for this compound. Item: `CO[C@H]1/C=C/O[C@@]2(C)Oc3c(C)c(O)c4c(O)c(c5c(c4c3C2=O)NC2(CCN(CC(C)C)CC2)N=5)=NC(=O)/C(C)=C\C=C\[C@H](C)[C@H](O)[C@@H](C)[C@@H](O)[C@@H](C)[C@H](OC(C)=O)[C@@H]1C`
stdout: YES

stdin: What call does the record list for CN1[C@H]2CC(OC(=O)[C@H](CO)c3ccccc3)C[C@H]1[C@H]1O[C@H]12 (stereo not given in full) ?
stdout: NO

====

testProtocol: Cell Viability - LYMP2-014 (AID 983);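 further: cells exposed to compound for 24 h at 37 °C; nearly all actives have a fitted effect of over 50% in size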
settings: LYMP2-014 lymphoblastoid cells, viability qHTS; series mostly up to 92.2 µM
Records with an inconclusive call do not appear. Activity calls are given as the source filed them. Calls follow the shape of the dose curve; as a rule, active = well fitted cell-killing curve with a large enough effect; inconclusive = small, poorly fitted or top-dose-only effect; inactive = flat fitted curve, though single readings scatter.
Bench note: report the call from 1 (yes) = active, 0 (no) = inactive

stdin: // param item: `C=CC(=O)OCCOCCOC(=O)C=C` ; yields the recorded call
stdout: 1 (yes)

stdin: Can you look up the reported call for `Nc1ccc2cc3ccccc3cc2c1` for me?
stdout: 0 (no)

stdin: Recorded test call requested for `CCCCCC/C(C=O)=C\c1ccccc1`
stdout: 0 (no)

stdin: Recorded test outcome, item O=C(/C=C/c1ccc(O)c(O)c1)OC1C[C@](O)(C(=O)O)C[C@@H](O)[C@H]1O (stereo partly drawn)
stdout: 0 (no)

stdin: Outcome? `c1ccc2c(c1)ccc1cc3c(ccc4ccccc43)cc12`
stdout: 0 (no)

stdin: Field: outcome | Entry: CN1[C@H]2CC(OC(=O)[C@H](CO)c3ccccc3)C[C@H]1[C@H]1O[C@H]12 (stereo partly drawn)
stdout: 0 (no)

stdin: What outcome does the record of this test show for `CN(C)c1ccc(C2(c3ccc(N(C)C)cc3)OC(=O)c3cc(N(C)C)ccc32)cc1` ?
stdout: 0 (no)

stdin: Could you kindly confirm the outcome this assay logged for `CO[C@H]1/C=C/O[C@@]2(C)Oc3c(C)c(O)c4c(O)c(c5c(c4c3C2=O)NC2(CCN(CC(C)C)CC2)N=5)=NC(=O)/C(C)=C\C=C\[C@H](C)[C@H](O)[C@@H](C)[C@@H](O)[C@@H](C)[C@H](OC(C)=O)[C@@H]1C` ?
stdout: 0 (no)
